Kindly supply the reported log10 IC50 values for the records listed here.
# System: Solute carrier family 22 member 12 (Homo sapiens, UniProt Q96S37)
# Sequence (Q96S37 whole entry, canonical isoform): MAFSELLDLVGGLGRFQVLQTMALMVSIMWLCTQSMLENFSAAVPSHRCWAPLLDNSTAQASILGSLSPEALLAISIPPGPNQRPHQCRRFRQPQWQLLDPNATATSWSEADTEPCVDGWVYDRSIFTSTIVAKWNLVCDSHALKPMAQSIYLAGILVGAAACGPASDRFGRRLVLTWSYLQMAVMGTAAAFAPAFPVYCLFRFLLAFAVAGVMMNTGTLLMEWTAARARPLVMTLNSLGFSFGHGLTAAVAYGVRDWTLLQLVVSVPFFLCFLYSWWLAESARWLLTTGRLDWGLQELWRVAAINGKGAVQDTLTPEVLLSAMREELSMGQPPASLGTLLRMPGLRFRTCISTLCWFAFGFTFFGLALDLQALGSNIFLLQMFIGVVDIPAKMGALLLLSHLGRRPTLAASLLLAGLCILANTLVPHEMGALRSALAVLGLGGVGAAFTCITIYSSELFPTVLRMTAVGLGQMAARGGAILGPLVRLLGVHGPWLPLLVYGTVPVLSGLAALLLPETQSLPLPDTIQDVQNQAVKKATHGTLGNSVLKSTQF
# Test: Inhibition of human C-terminal eGFP-tagged URAT1 long isoform expressed in CHO cells assessed as decrease in [14C]-uric acid uptake preincubated for 15 mins followed by [14C]-uric acid addition and incubated in dark for 3 hrs by scintillation counting method
# Type: cell-based
Kindly note that the scale is log10 and the underlying IC50 is in nM.

Solved entries (count: 4):
> print(dat)
                                 mol.smiles                                    system  measured.number
1  N#Cc1ccc(Oc2ccc(S(=O)(=O)Nc3ccc(F)cn3)cc2)cc1F  Solute carrier family 22 member 12 (Homo sapiens, UniProt Q96S37)             1.94
2  N#Cc1ccc(Oc2ccc(S(=O)(=O)Nc3ccncn3)cc2C#N)cc1Cl  Solute carrier family 22 member 12 (Homo sapiens, UniProt Q96S37)             3.71
3  N#Cc1ccc(Oc2ccc(S(=O)(=O)Nc3ccc(F)cn3)cc2F)cc1F  Solute carrier family 22 member 12 (Homo sapiens, UniProt Q96S37)             2.58
4  N#Cc1ccc(Oc2ccc(S(=O)(=O)Nc3ncns3)cc2C#N)cc1Cl  Solute carrier family 22 member 12 (Homo sapiens, UniProt Q96S37)             3.05

Provide log10 IC50 for all items below, preserving their order.
1. N#Cc1ccc(Oc2ccc(S(=O)(=O)Nc3ccccn3)cc2C#N)cc1Cl
2. N#Cc1ccc(Oc2ccc(S(=O)(=O)Nc3ccc(F)cn3)c(F)c2)cc1F
3. N#Cc1ccc(Oc2ccc(S(=O)(=O)Nc3cccnc3)cc2C#N)cc1Cl
4. N#Cc1ccc(Oc2ccc(S(=O)(=O)Nc3ccc(F)cn3)cc2C#N)cc1Cl
5. N#Cc1ccc(Oc2ccc(S(=O)(=O)Nc3ncccn3)cc2C#N)cc1Cl

[2.06, 1.57, 2.60, 1.08, 3.26]
